Quick reference: activation at 100 µM of the listed items.
TARGET OR SYSTEM: Drosophila OR85b (Drosophila melanogaster)
Construct: expressed in transfected cells
Sequence (Q9VHQ7 1-390): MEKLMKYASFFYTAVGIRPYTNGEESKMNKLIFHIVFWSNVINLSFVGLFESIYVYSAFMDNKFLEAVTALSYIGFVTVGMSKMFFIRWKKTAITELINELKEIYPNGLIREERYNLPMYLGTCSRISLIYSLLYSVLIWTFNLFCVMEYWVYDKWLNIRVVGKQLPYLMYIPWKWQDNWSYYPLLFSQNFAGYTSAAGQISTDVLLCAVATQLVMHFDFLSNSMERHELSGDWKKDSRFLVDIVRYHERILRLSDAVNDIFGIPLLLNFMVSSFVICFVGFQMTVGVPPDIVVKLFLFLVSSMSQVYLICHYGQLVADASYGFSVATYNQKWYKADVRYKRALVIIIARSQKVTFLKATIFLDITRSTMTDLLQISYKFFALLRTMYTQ
Sequence (Q9VNB5 1-486 partner): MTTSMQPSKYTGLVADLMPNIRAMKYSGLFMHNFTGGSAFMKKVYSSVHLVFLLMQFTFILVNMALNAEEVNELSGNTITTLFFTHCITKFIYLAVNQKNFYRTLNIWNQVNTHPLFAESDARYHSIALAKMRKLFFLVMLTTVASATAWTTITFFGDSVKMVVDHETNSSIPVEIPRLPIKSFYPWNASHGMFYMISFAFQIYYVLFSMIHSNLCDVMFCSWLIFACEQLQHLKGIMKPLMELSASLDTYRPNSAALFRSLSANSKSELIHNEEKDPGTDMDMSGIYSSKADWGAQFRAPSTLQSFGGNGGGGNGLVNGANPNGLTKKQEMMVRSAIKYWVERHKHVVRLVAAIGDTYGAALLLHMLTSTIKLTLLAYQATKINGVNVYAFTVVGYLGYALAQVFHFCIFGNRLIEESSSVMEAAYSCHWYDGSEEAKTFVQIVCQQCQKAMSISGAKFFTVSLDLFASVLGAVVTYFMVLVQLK
TEST NAME: Calcium ion fluorescence (GCaMP6) assay, OR85b stable HEK293 cell line
Assay type: cell-based
SETUP CONDITIONS: HEK293, read-out: OR85b Average response (VUAA1-normalized)

{"MOLECULE": "CCCCCOC(C)=O [pentyl acetate]", "TARGET OR SYSTEM": "Drosophila OR85b (Drosophila melanogaster)", "READOUT UNIT": "%", "activation at 100 µM": 14}
{"MOLECULE": "Cc1ccc(C)c(C)c1", "TARGET OR SYSTEM": "Drosophila OR85b (Drosophila melanogaster)", "READOUT UNIT": "%", "activation at 100 µM": 12}
{"MOLECULE": "COC(=O)c1ccccc1O [methyl salicylate]", "TARGET OR SYSTEM": "Drosophila OR85b (Drosophila melanogaster)", "READOUT UNIT": "%", "activation at 100 µM": 13}
{"MOLECULE": "CCCCCC(C)O (centres unmarked)", "TARGET OR SYSTEM": "Drosophila OR85b (Drosophila melanogaster)", "READOUT UNIT": "%", "activation at 100 µM": 32}
{"MOLECULE": "CC1=CCC23CC1C(C)(C)C2CCC3C (centres unmarked)", "TARGET OR SYSTEM": "Drosophila OR85b (Drosophila melanogaster)", "READOUT UNIT": "%", "activation at 100 µM": 26}
{"MOLECULE": "CCCCCCCCCCC", "TARGET OR SYSTEM": "Drosophila OR85b (Drosophila melanogaster)", "READOUT UNIT": "%", "activation at 100 µM": 11}
{"MOLECULE": "CCCCCC(C)=O", "TARGET OR SYSTEM": "Drosophila OR85b (Drosophila melanogaster)", "READOUT UNIT": "%", "activation at 100 µM": 55}
{"MOLECULE": "Cc1ccccc1", "TARGET OR SYSTEM": "Drosophila OR85b (Drosophila melanogaster)", "READOUT UNIT": "%", "activation at 100 µM": 11}
